Target: T1, human CADM3 (human, UniProt Q8N126 25-398)
T1 construct: Full-length gene expressed transiently on Expi293F cells; also called cell adhesion molecule 3; human CADM3/Expi293F cells
T1 sequence: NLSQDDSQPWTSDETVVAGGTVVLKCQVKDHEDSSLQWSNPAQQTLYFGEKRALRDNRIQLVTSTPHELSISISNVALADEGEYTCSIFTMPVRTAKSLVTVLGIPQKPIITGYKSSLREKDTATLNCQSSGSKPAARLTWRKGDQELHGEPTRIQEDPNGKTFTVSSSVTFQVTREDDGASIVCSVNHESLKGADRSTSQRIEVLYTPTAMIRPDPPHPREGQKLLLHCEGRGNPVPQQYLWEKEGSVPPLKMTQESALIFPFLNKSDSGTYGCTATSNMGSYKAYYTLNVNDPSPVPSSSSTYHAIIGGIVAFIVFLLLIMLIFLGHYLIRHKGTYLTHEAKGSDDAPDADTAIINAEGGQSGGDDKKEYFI
Experiment: flow cytometry, 10 ug/mL, human CADM3/Expi293F vs parent Expi293F cells
Below, each entry is listed alongside its reported Mean fluorescence intensity ratio.
reported_endpoint: Mean fluorescence intensity ratio

* iCADM3_3R1-L5 VHH-hG4PE(R409K) (Fc fusion, VHH-Fc antibody; also called anti-CADM3 VHH-Fc antibody iCADM3_3R1-L5; not shown: Hinge-CH2-CH3 region of the human IgG4 heavy chain constant region (IgG4 variant)) QVQLVESGGGLVQAGGSLRLSCAASGSIVSVNAMGWYRQAPGKQRELVATITSGGSTNYADSAKGRFTISRDNAKNTMYLQMNSLKPEDTAVYYCNGEFWSRRDTRPPGVVNYWGQGTQVTVSS | 25.1
* CADM3102 scFv-hG4PE (Fc fusion, also called anti-CADM3 scFv-Fc antibody) VH: QMQLVQSGAEVKKPGSSVKVSCKASGGTFSSYAISWVRQAPGQGLEWMGGIIPMSGTANYAQKFQGRVTITADESTSTAYMELSSLRSEDTAVYYCARVEESGWYDHYHGMDVWGQGTTVTVSS VL: DVVMTQSPLSLPVTPGEPASISCTSSQSLLYSNGFNYLDWYLQKPGQSPQLLIYLGSNRASGVPDRFSGSGSGTDFTLKISRVEAEDVGVYYCMQALTTHPTFGGGTKVDIK | 52.3
* iCADM3_3R1-L11 VHH-hG4PE(R409K) (Fc fusion, VHH-Fc antibody; also called anti-CADM3 VHH-Fc antibody iCADM3_3R1-L11; not shown: Hinge-CH2-CH3 region of the human IgG4 heavy chain constant region (IgG4 variant)) QVQLVESGGGLVQAGGSLRLSCAASGSIFSFNAMGWYRQAPGKQRGLVAVITSGGYTNYADSVKGRFTITRDNAKNTVYLQMNSLKPEDTAVYYCNAEGVYSDYVIMNYWGQGTQVTVSS | 32.2
